Values compiled from patent US20230056336A1.

Biological target: T1, basiliximab fab
T1 construct: The assay used a Fab of basiliximab; Chimeric antibody: human IgG1 constant, mouse variable domains
T1 sequence (VH, as listed by the source limits assumed, chain 1 of 2): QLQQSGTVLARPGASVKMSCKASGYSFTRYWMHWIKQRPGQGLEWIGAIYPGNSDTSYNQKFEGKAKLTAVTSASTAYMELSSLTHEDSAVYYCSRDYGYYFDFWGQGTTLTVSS
T1 sequence (VL, as listed by the source limits assumed, chain 2 of 2): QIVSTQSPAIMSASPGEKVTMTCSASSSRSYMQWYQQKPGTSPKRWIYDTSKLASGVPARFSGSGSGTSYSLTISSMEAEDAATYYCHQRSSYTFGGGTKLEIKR
Assay: BLI; CD25-Fc on anti-hFc biosensor, basiliximab Fab in solution; global 1:1 fit;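 further: biolayer interferometry signals normalized against a reference probe and smoothed with a Savitzky-Golay filter before the global fit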
quantity measured: koff (s⁻¹)
Response body: numeric value in s⁻¹, unit text excluded.

Use the examples below as a reference point.
binder: CD25 S41D mutant (CD25-Fc) (Fc fusion, not shown: Fc part of CD25-Fc) ELCDDDPPEIPHATFKAMAYKEGTMLNCECKRGFRRIKSGDLYMLCTGNSSHSSWDNQCQCTSSATRNTTKQVTPQPEEQKERKTTEMQSPMQPVDQASLPGHCREPPPWENEATERIYHFVVGQMVYYQCVQGYRALHRGPAESVCKMTHGKTRWTQPQLICTGEMETSQFPGEEKPQASPEGRPESETSCLVTTTDFQIQTEMAATMETSIFTTEYQ
uom: s⁻¹
readout value: 0.00708
//
binder: CD25 S41Q mutant (CD25-Fc) (Fc fusion, not shown: Fc part of CD25-Fc) ELCDDDPPEIPHATFKAMAYKEGTMLNCECKRGFRRIKSGQLYMLCTGNSSHSSWDNQCQCTSSATRNTTKQVTPQPEEQKERKTTEMQSPMQPVDQASLPGHCREPPPWENEATERIYHFVVGQMVYYQCVQGYRALHRGPAESVCKMTHGKTRWTQPQLICTGEMETSQFPGEEKPQASPEGRPESETSCLVTTTDFQIQTEMAATMETSIFTTEYQ
uom: s⁻¹
readout value: 0.00512
//
binder: CD25 L42A mutant (CD25-Fc) (Fc fusion, not shown: Fc part of CD25-Fc) ELCDDDPPEIPHATFKAMAYKEGTMLNCECKRGFRRIKSGSAYMLCTGNSSHSSWDNQCQCTSSATRNTTKQVTPQPEEQKERKTTEMQSPMQPVDQASLPGHCREPPPWENEATERIYHFVVGQMVYYQCVQGYRALHRGPAESVCKMTHGKTRWTQPQLICTGEMETSQFPGEEKPQASPEGRPESETSCLVTTTDFQIQTEMAATMETSIFTTEYQ
uom: s⁻¹
readout value: 2.49e-05

So what does the record say about koff for CD25 L42F mutant (CD25-Fc) (Fc fusion, not shown: Fc part of CD25-Fc) ELCDDDPPEIPHATFKAMAYKEGTMLNCECKRGFRRIKSGSFYMLCTGNSSHSSWDNQCQCTSSATRNTTKQVTPQPEEQKERKTTEMQSPMQPVDQASLPGHCREPPPWENEATERIYHFVVGQMVYYQCVQGYRALHRGPAESVCKMTHGKTRWTQPQLICTGEMETSQFPGEEKPQASPEGRPESETSCLVTTTDFQIQTEMAATMETSIFTTEYQ ? 0.000772

Reported koff, binder CD25 S41E mutant (CD25-Fc) (Fc fusion, not shown: Fc part of CD25-Fc) ELCDDDPPEIPHATFKAMAYKEGTMLNCECKRGFRRIKSGELYMLCTGNSSHSSWDNQCQCTSSATRNTTKQVTPQPEEQKERKTTEMQSPMQPVDQASLPGHCREPPPWENEATERIYHFVVGQMVYYQCVQGYRALHRGPAESVCKMTHGKTRWTQPQLICTGEMETSQFPGEEKPQASPEGRPESETSCLVTTTDFQIQTEMAATMETSIFTTEYQ : ____ 0.00719

Fill blank: measured koff of the binder CD25 L2Y mutant (CD25-Fc) (Fc fusion, not shown: Fc part of CD25-Fc) EYCDDDPPEIPHATFKAMAYKEGTMLNCECKRGFRRIKSGSLYMLCTGNSSHSSWDNQCQCTSSATRNTTKQVTPQPEEQKERKTTEMQSPMQPVDQASLPGHCREPPPWENEATERIYHFVVGQMVYYQCVQGYRALHRGPAESVCKMTHGKTRWTQPQLICTGEMETSQFPGEEKPQASPEGRPESETSCLVTTTDFQIQTEMAATMETSIFTTEYQ is ____. 0.00263

Which measured koff value corresponds to CD25 Y43R mutant (CD25-Fc) (Fc fusion, not shown: Fc part of CD25-Fc) ELCDDDPPEIPHATFKAMAYKEGTMLNCECKRGFRRIKSGSLRMLCTGNSSHSSWDNQCQCTSSATRNTTKQVTPQPEEQKERKTTEMQSPMQPVDQASLPGHCREPPPWENEATERIYHFVVGQMVYYQCVQGYRALHRGPAESVCKMTHGKTRWTQPQLICTGEMETSQFPGEEKPQASPEGRPESETSCLVTTTDFQIQTEMAATMETSIFTTEYQ ? 0.000399

Which koff value belongs to CD25 L42W mutant (CD25-Fc) (Fc fusion, not shown: Fc part of CD25-Fc) ELCDDDPPEIPHATFKAMAYKEGTMLNCECKRGFRRIKSGSWYMLCTGNSSHSSWDNQCQCTSSATRNTTKQVTPQPEEQKERKTTEMQSPMQPVDQASLPGHCREPPPWENEATERIYHFVVGQMVYYQCVQGYRALHRGPAESVCKMTHGKTRWTQPQLICTGEMETSQFPGEEKPQASPEGRPESETSCLVTTTDFQIQTEMAATMETSIFTTEYQ ? 0.000201

GET /values?readout=koff&item= CD25 T47N mutant (CD25-Fc) (Fc fusion, not shown: Fc part of CD25-Fc) ELCDDDPPEIPHATFKAMAYKEGTMLNCECKRGFRRIKSGSLYMLCNGNSSHSSWDNQCQCTSSATRNTTKQVTPQPEEQKERKTTEMQSPMQPVDQASLPGHCREPPPWENEATERIYHFVVGQMVYYQCVQGYRALHRGPAESVCKMTHGKTRWTQPQLICTGEMETSQFPGEEKPQASPEGRPESETSCLVTTTDFQIQTEMAATMETSIFTTEYQ 0.00776

Return reported koff; argument: CD25 L42G mutant (CD25-Fc) (Fc fusion, not shown: Fc part of CD25-Fc) ELCDDDPPEIPHATFKAMAYKEGTMLNCECKRGFRRIKSGSGYMLCTGNSSHSSWDNQCQCTSSATRNTTKQVTPQPEEQKERKTTEMQSPMQPVDQASLPGHCREPPPWENEATERIYHFVVGQMVYYQCVQGYRALHRGPAESVCKMTHGKTRWTQPQLICTGEMETSQFPGEEKPQASPEGRPESETSCLVTTTDFQIQTEMAATMETSIFTTEYQ 0.000152
